Hey, just so you know, these numbers are from the supplement of paper PMC10567573.

Overview of reported protein stability index across a group of variants:
B1: ZBED3 (parent)
chain: GPGFHAGTSALWRHLRSAHRRELE

variants of: B1; experiment: protein stability index of a GFP-peptide fusion (GPS, HEK-293T) (PSI 1-6); higher = more stable; details: c terminus: a fixed tail appended;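 also: lentivirally expressed fusions sorted by FACS into six bins by GFP to DsRed ratio, PSI derived from sequencing read proportions per bin multiplied by bin number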
Lab note: record just the number, no unit beside it.

| Sequence variant | protein stability index |
| --- | --- |
| L11E | 2.52 |
| W12L | 2.24 |
| R20I | 1.74 |
| W12K | 3.18 |

[in] Param item = `H14A` ; retrieve measured protein stability index.
[out] 2.3

[in] Param item = `S17L` ; retrieve measured protein stability index.
[out] 3.44

[in] Param item = `H5G` ; retrieve measured protein stability index.
[out] 2.62

[in] Param item = `E22S` ; retrieve measured protein stability index.
[out] 2.17

[in] Param item = `L23Q` ; retrieve measured protein stability index.
[out] 2.13

[in] Param item = `A6K` ; retrieve measured protein stability index.
[out] 2.3

[in] Param item = `R21Q` ; retrieve measured protein stability index.
[out] 2.52
